molecular target: human GLP-1 receptor (hGLP1R) (human, UniProt P43220 24-463); experiment: cell-based or functional assay
Numbered stars: 1 amine (or outer) side, 2 acyl side, 3 side chain; on linkers, the order of the positions; unused ones are H or OH. Square brackets hold non-standard residues; d marks the D form. Side chains are listed from the residue outwards. Ends that are not written are not given here. * marks the point of attachment. C20 diacid = O=C(O)CCCCCCCCCCCCCCCCCCC(=O)*; γGlu = O=C(O)[C@H](CCC(=O)[*:2])N[*:1]; AEEA = NCCOCCOCC(=O)O; Aib = CC(C)(N)C(=O)O
In this section, each of the binders is paired with its reported pEC50 hGLPR1.

H[Aib]EGTFTSDVSVLK([AEEA-AEEA-γGlu-C20 diacid])EEAAQQRFLEHLV-NH2 [SEQ ID NO: 90] ... 10.5 -log M
H[Aib]EGTFTSDVSYLKEEA[Aib]GQRFLEHLV-NH2 (not fully specified (residue 14)) [SEQ ID NO: 154] ... 10.8 -log M

Problem: Fill in: pEC50 hGLPR1 of H[Aib]EGTFTSDVSYLKEEA[Aib][Aib]QRFLEHLV-NH2 (not fully specified (residue 14)) [SEQ ID NO: 152] is ___
Solution: 10.9 -log M
